Organism: Rattus norvegicus
Method: DrugMatrix - Regimen: Daily Repeat
Assay type: toxicity, organism-based, Sprague-Dawley
Design: regimen Daily Repeat, gender Male, age 6-8 weeks
Particulars: in vivo, po, 0 mg/kg, 72 h, tissue Blood, route oral GAVAGE, dose level Control, time 3 day, vehicle .5 % CMC
Quantity Name: ABSOLUTE BASOPHIL

Examples with answers:
# Compound, ABSOLUTE BASOPHIL
records = [
    ("C[C@@](Cc1ccc(O)c(O)c1)(NN)C(=O)O.O", "0 CELLS/uL"),
    ("CCC1=C(C)CN(C(=O)NCCc2ccc(S(=O)(=O)NC(=O)N[C@H]3CC[C@H](C)CC3)cc2)C1=O [GLIMEPIRIDE]", "0 CELLS/uL"),
    ("CN(C)C(=O)C(CCN1CCC(O)(c2ccc(Cl)cc2)CC1)(c1ccccc1)c1ccccc1 [LOPERAMIDE]", "0 CELLS/uL"),
]

Exercise: Endpoint output: ABSOLUTE BASOPHIL of CCOc1nc2cccc(C(=O)O)c2n1Cc1ccc(-c2ccccc2-c2nnn[nH]2)cc1 . Value?
Key: 0 CELLS/uL

Exercise: Endpoint output: ABSOLUTE BASOPHIL of NC(=O)N1c2ccccc2CC(=O)c2ccccc21 [OXCARBAZEPINE] . Value?
Key: 0 CELLS/uL

Exercise: Endpoint output: ABSOLUTE BASOPHIL of C[C@H]1[C@H](NC(=O)/C(=N\OC(C)(C)C(=O)O)c2csc(N)n2)C(=O)N1S(=O)(=O)O . Value?
Key: 0 CELLS/uL

Exercise: Endpoint output: ABSOLUTE BASOPHIL of COc1cc(OC)c(C(=O)CCCN2CCCC2)c(OC)c1 . Value?
Key: 0 CELLS/uL

Exercise: Endpoint output: ABSOLUTE BASOPHIL of C[C@@H]1O[C@@H](O[C@H]2C[C@@H](O)[C@]3(CO)[C@H]4[C@H](O)C[C@]5(C)[C@@H](C6=CC(=O)OC6)CC[C@]5(O)[C@@H]4CC[C@]3(O)C2)[C@H](O)[C@H](O)[C@H]1O . Value?
Key: 0 CELLS/uL

Exercise: Endpoint output: ABSOLUTE BASOPHIL of C[C@]12CC[C@@H]3c4ccc(O)cc4CC[C@H]3[C@@H]1C[C@@H](O)[C@@H]2O . Value?
Key: 0 CELLS/uL

Exercise: Endpoint output: ABSOLUTE BASOPHIL of COc1ccccc1[N+](=O)[O-] . Value?
Key: 0 CELLS/uL
